# TARGET: KDR/VEGFR2 (Homo sapiens)
# Sequence (P35968 20-1356): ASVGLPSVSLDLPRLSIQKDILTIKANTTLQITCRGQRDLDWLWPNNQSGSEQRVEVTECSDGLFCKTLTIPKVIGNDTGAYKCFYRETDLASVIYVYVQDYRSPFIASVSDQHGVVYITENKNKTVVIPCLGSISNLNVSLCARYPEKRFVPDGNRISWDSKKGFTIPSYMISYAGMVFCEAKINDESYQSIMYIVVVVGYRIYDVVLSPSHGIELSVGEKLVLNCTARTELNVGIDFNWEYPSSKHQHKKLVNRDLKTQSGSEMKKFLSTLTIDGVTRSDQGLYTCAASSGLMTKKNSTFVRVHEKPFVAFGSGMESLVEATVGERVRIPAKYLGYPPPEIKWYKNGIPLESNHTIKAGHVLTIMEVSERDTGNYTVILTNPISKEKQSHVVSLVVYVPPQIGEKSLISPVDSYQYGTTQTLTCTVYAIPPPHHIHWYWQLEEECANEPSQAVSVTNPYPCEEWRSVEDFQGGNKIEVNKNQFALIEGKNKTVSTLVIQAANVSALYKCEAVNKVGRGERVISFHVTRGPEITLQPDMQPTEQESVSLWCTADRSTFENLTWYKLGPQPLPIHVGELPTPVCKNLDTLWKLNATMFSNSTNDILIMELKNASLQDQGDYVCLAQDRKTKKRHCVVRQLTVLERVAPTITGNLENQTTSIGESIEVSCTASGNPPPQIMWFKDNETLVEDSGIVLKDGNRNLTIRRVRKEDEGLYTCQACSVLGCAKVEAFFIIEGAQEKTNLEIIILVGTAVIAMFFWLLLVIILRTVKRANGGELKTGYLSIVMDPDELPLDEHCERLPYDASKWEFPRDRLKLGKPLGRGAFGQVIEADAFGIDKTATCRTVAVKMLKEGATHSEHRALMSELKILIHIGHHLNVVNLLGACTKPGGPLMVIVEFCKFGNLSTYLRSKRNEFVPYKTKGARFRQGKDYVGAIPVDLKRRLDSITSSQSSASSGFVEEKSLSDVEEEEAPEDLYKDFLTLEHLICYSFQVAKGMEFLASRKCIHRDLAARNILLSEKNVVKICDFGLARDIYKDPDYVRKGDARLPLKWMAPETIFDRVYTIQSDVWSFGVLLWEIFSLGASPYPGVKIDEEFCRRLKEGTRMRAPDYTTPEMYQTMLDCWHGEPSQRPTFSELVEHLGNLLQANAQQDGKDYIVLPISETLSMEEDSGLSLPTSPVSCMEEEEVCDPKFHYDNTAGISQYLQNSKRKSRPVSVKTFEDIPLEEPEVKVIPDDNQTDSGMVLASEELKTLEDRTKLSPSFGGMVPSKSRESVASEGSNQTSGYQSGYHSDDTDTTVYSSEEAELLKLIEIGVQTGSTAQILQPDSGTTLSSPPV
# TEST_DESCRIPTION: HotSpot Kinase Assay, KDR/VEGFR2
RESULT_TYPE: IC50

Completed entries (count: 2):
- COc1cc2nccc(Oc3ccc(NC(=O)C4(C(=O)Nc5ccc(F)cc5)CC4)cc3)c2cc1OC(=O)N1[C@H](C)CNC[C@@H]1C [Compound 7-4]: < 100 nM
- COc1cc2c(Oc3ccc(NC(=O)C4(C(=O)Nc5ccc(F)cc5)CC4)cc3F)ccnc2cc1OC(=O)N1CCN(C)C[C@H]1C [Compound 3-5]: < 100 nM

Below are some compounds; for each one, tell me its IC50.
1. COc1cc2c(Oc3ccc(NC(=O)C4(C(=O)Nc5ccc(F)cc5)CC4)cc3)ccnc2cc1OC(=O)N1CCN(C)C[C@H]1C [Compound 1-11]
2. COc1cc2c(Oc3ccc(NC(=O)C4(C(=O)Nc5ccc(F)cc5)CC4)cc3)ccnc2cc1OC(=O)N1CCN(C)C[C@@H]1C [Compound 1-12]

Result:
> 1000 nM
100 to 1000 nM

Batch of 3 compounds: report IC50 for each.
1. COc1cc2c(Oc3ccc(NC(=O)C4(C(=O)Nc5ccc(F)cc5)CC4)cc3)ccnc2cc1OC(=O)N1C[C@@H]2C[C@H]1CN2C [Compound 2-7]
2. COc1cc2c(Oc3ccc(NC(=O)C4(C(=O)Nc5ccc(F)cc5)CC4)cc3)ccnc2cc1OC(=O)N1CCN(C)[C@@H](C)C1 [Compound 2-3]
3. COc1cc2c(Oc3ccc(NC(=O)C4(C(=O)Nc5ccc(F)cc5)CC4)cc3)ccnc2cc1OC(=O)N1[C@H](C)CN(C)C[C@@H]1C [Compound 6-3]

Result:
["100 to 1000 nM", "100 to 1000 nM", "100 to 1000 nM"]
